Assayed target: human 5-HT6 receptor (Homo sapiens)
Construct: host or cells: CHO-K1 cells, stably transfected; membranes prepared in house
Sequence (P50406 whole entry): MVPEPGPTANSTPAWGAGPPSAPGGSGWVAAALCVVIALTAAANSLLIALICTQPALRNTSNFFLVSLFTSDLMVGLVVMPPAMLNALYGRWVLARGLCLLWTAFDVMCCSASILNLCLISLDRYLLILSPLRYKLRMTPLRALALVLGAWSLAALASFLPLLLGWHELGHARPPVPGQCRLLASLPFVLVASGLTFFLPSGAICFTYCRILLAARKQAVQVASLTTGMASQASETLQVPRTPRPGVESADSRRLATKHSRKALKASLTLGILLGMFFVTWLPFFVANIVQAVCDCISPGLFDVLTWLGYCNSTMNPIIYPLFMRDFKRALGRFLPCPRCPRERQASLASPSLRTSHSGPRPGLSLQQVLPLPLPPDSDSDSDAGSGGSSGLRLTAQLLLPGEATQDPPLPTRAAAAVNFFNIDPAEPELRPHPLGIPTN
Experimental details: Human 5-HT6 Receptor Binding Assay ([3H]LSD displacement, scintillation beads)
Settings: membranes of CHO-K1 cells with recombinant human 5-HT6, 4 nM [3H]LSD; Table 1, class symbols; read-out: h5-HT6 (Ki)
Procedure: Human 5-HT6 Receptor Binding Assay Membranes were prepared from CHO—K1 cells stably transfected with the human 5-HT6 receptor (Euroscreen; ES-316-C). […] The membranes were centrifuged at 40,000×g for 30 min at 4° C. and the pellets were resuspended in membrane buffer containing 250 mM sucrose, and protein concentration was determined using the Coomassie Plus kit (Pierce Biotechnology, Rockford, Ill.). […]
pKi: −log10 of the molar value.
Reported pKi values for the following compounds.

| Compound | pKi |
| --- | --- |
| CC(=O)NCC1(C)NCCc2c1oc1cc(S(=O)(=O)c3cccc(F)c3)ccc21 (stereo not drawn) [Example 631] | > 6.30 |
| CC12CCNCC1Oc1ccc(S(=O)(=O)c3cccc(Cl)c3Cl)cc12 (stereo not drawn) [Example 105] | > 6.30 |
| Cc1ccc(S(=O)(=O)Oc2ccc3c(c2)C2CCNCC2O3)cc1C (stereo not drawn) | > 6.30 |
| CC(C)Oc1cccc(S(=O)(=O)c2ccc3c4c(oc3c2)C2(CCOC2)NCC4)c1 (single isomer, unassigned) [Example 31] | > 6.30 |
| O=S(=O)(Oc1ccc2c(c1)OC1CNCCC21)c1ccccn1 (stereo not drawn) | < 6.00 |
| O=S(=O)(c1cccc(F)c1)c1ccc2c3c([nH]c2c1)C1(CCCOC1)NCC3 (stereo not drawn) | > 6.30 |
| CC12CCN(C3CCCCC3)CC1Oc1ccc(OS(=O)(=O)Cc3ccccc3)cc12 (stereo not drawn) | < 6.00 |
| O=S(=O)(c1ccc(F)c(F)c1)c1ccc2oc3c(c2c1)CCNC3 | > 6.30 |
| [O-][S+](c1ccc2c3c(oc2c1)CNCC3)c1c(F)c(F)cc(F)c1F (stereo not drawn) | > 6.30 |
| O=S(=O)(c1ccc2c(c1)OCCO2)c1ccc2c3c(oc2c1)CNCC3 | > 6.30 |
| O=S(=O)(c1cccc(OCc2ccccn2)c1)c1ccc2c(c1)OC1CNCCC21 (stereo not drawn) | > 6.30 |
| COCC1NCCc2c1oc1cc(S(=O)(=O)c3cccc(Cl)c3)ccc21 (stereo not drawn) | > 6.30 |
| O=S(=O)(Cc1ccccc1)Oc1ccc2c(c1)C1CCNCC1O2 (stereo not drawn) | < 6.00 |
| [O-][S+](c1ccc2oc3c(c2c1)CCNC3)c1cccnc1Cl (stereo not drawn) | < 6.00 |
| O=S(=O)(c1ccncc1)c1ccc2c(c1)OC1CNCCC21 (stereo not drawn) | < 6.00 |
| CC12CCNCC1Oc1ccc(OS(=O)(=O)Cc3ccccc3Cl)cc12 (stereo not drawn) | > 6.30 |
| O=S(=O)(Oc1ccc2c(c1)C1CCNCC1O2)c1cccc(F)c1 (stereo not drawn) | < 6.00 |
| CC(C)c1ccc(S(=O)(=O)Nc2ccc3c(c2)C2CCNCC2O3)cc1 (stereo not drawn) | < 6.00 |
